Items are presented alongside their recorded Maximum inhibition rate %; hIL36β; IL-8 production.
Molecular target: T1, IL-36R naturally expressed on OVCAR8 cells and on normal human epidermal keratinocytes (NHK cells) (human, UniProt Q9HB29 20-575)
T1 sequence (looked up): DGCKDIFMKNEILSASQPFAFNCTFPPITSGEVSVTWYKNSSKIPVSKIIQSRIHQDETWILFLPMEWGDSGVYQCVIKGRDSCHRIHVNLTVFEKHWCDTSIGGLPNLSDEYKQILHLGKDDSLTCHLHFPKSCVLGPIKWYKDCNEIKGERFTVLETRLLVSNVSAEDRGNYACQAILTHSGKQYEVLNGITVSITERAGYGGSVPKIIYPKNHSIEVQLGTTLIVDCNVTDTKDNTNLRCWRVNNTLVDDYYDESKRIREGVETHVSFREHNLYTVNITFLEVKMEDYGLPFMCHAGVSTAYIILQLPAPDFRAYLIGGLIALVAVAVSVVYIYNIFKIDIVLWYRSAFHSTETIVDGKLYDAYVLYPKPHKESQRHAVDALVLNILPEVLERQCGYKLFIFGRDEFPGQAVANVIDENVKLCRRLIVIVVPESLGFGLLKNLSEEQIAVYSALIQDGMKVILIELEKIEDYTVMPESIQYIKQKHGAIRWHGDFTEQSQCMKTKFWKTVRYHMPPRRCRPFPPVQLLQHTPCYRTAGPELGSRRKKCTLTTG
Experiment: cell-based or functional assay
Please give a number only; it is taken to be in %.

{"binder": "hz84C4-2.5 (antibody, human IgG4 S228P, kappa, V domains shown, Humanized, human IgG4 / kappa) VH: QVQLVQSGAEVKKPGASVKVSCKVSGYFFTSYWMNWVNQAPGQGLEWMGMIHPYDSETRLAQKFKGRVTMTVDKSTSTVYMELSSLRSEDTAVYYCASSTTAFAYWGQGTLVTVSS VL: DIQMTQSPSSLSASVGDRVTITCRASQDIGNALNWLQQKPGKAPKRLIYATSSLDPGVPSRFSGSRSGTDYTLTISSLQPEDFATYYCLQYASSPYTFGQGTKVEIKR", "result-unit": "%", "reading": 102}
{"binder": "hz84C4-1.4 (antibody, human IgG4 S228P, kappa, V domains shown, Humanized, human IgG4 / kappa) VH: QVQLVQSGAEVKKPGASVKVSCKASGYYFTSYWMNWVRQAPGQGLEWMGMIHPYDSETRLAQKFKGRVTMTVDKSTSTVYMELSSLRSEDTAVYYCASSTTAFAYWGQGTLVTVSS VL: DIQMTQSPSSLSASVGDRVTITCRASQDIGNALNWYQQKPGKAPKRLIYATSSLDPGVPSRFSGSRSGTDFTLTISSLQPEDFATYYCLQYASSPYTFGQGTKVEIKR", "result-unit": "%", "reading": 93.5}

Look up Maximum inhibition rate %; hIL36β; IL-8 production of hz84C4-1.2 (antibody, human IgG4 S228P, kappa, V domains shown, Humanized, human IgG4 / kappa) VH: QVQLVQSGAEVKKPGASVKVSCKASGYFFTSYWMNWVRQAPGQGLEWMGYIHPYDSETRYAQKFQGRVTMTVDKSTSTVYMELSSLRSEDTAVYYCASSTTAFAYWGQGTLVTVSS VL: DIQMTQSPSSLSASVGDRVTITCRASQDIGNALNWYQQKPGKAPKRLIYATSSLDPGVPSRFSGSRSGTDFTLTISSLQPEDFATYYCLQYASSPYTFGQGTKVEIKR and report it. 91.2
